Target: T1, human TF on cells (MDA-MB-231, BxPC-3 and other tumor cells with high TF expression) (human, UniProt P13726 33-295)
T1 construct: whole, on cells; Endogenous expression on tumor cell lines; also called cell surface TF
Test: flow cytometry on MDA-MB-231 cells, antibody at 1 µg/mL
endpoint: MFI (MFI)

- TF-mAb-H30 (antibody, V domains shown) VH: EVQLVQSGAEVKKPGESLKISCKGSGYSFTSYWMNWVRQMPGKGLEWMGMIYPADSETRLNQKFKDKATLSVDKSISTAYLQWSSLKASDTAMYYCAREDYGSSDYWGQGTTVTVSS VL: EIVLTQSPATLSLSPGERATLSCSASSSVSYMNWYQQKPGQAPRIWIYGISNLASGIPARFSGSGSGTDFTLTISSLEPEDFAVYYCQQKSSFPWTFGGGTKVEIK: 2930
- TF-mAb-H32 (antibody, V domains shown) VH: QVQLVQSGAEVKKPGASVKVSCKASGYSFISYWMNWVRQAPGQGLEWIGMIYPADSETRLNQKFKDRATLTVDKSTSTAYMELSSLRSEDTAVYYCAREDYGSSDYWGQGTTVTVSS VL: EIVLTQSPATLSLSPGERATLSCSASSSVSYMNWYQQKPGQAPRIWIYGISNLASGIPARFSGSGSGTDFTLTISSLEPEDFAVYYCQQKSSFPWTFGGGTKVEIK: 2400
- TF-mAb-H39 (antibody, V domains shown) VH: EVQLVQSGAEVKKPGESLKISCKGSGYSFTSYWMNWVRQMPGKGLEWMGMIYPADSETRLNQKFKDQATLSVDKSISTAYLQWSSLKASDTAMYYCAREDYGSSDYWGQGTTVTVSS VL: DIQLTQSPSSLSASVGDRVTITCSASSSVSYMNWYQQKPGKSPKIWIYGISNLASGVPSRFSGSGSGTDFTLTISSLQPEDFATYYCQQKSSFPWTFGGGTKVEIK: 3180
